Provenance of the data: PubChem BioAssay (NCI)

System: T-47D breast
Experiment: NCI-60 one-dose screen, 48 h
Settings: 10 µM unless noted
Compounds without any hit were thinned out: in the full panel of roughly 83,000, 20% have a hit. Activity calls are given as the source filed them. The calls were made as follows: active = growth percent below 10; inactive = the rest.
Outcome field: choose from T (active), F (inactive)

Use these answered entries as a reference point.
>>> cat("O=C(NCCCNc1cc(-c2cn(-c3ccccc3)nc2-c2cccc(O)c2)ccn1)Nc1cc(C(F)(F)F)cc(C(F)(F)F)c1")
"F"
>>> cat("N=c1c2cc(-c3ccccc3)oc2ncn1/N=C/c1ccccc1")
"F"
>>> cat("O=C(NNc1nc2cc(F)c(F)cc2n2cccc12)c1cccnn1")
"F"
>>> cat("C=C(C)C(=O)O[C@H]1C[C@@]2(C)OC(=CC2=O)[C@H](C)[C@H](O)[C@H]2OC(=O)C(=C)[C@@H]21")
"F"
>>> cat("CN1C(=O)N(C)C2Nn3c(s/c(=C\\c4ccccn4)c3=O)=NC21 (centres undefined)")
"F"
>>> cat("Cn1cc2c(c1)-c1c(sc3nc(-c4ccc(NC(=O)Nc5cc(C(C)(C)C)on5)cc4)cn13)CC2")
"F"
>>> cat("CC1=C2C(=C[C@@](C)(COS(N)(=O)=O)[C@@H]2O)C(=O)[C@](C)(O)C12CC2")
"F"
>>> cat("COc1ccc(S(=O)(=O)n2cc(C=O)c3ccccc32)c(OC)c1")
"F"
>>> cat("O=C1c2cc(Br)ccc2-n2c1nc1cc(Br)ccc1c2=O")
"F"
>>> cat("O=S(=O)(Nc1cc(Cl)c(F)c(Cl)c1)c1ccc(-c2cnc(C3CC3)o2)cc1")
"F"

-- ask Record lookup: outcome of this test for C/C(Cc1ccc(Cl)cc1)=C(/c1ccccc1)c1ccc(OCCN)cc1 ?
-- reply F

-- ask Record lookup: outcome of this test for C=CCn1c(SCC(=O)Nc2cccc(C(=O)/C=C/c3ccccc3)c2)nc2ccccc2c1=O ?
-- reply F

-- ask Record lookup: outcome of this test for COc1ccc(-c2cc(-c3cccc4ccccc34)n3c(n2)nc2ccccc23)cc1 ?
-- reply F

-- ask Record lookup: outcome of this test for CC1(C)CC[C@]2(C(=O)O)CC[C@]3(C)C(=CCC4[C@@]5(C)C[C@@H](O)[C@@H]6OC(c7ccccc7O)OC[C@@]6(C)C5CC[C@]43C)C2C1 (some centres undefined) ?
-- reply F

-- ask Record lookup: outcome of this test for CC1CCc2c(sc3nc(SCC(=O)N/N=C/c4ccc(Cl)cc4)n(-c4ccccc4)c(=O)c23)C1 (centres undefined) ?
-- reply F

-- ask Record lookup: outcome of this test for COc1cc(OC)c(S(N)(=O)=O)cc1C(=O)/C=C/c1ccccc1 ?
-- reply F

-- ask Record lookup: outcome of this test for Cc1cc(=O)n2nc(-c3c[nH]c4ccccc34)sc2n1 ?
-- reply F

-- ask Record lookup: outcome of this test for Oc1ccc(CSc2nnc(-c3ccccc3)o2)c2cccnc12 ?
-- reply T

-- ask Record lookup: outcome of this test for COc1ccc(N2CCN(C(=O)CSc3ccc(-c4nc5cc(C)c(C)cc5[nH]4)cn3)CC2)cc1 ?
-- reply F
